Data credit: the supplement of paper PMC10065799

Collected phosphorylation enrichment values appear next to each entry.
Test system: AncSZ
Assay: phosphorylation enrichment, bacterial display (enrichment ratio); higher = better substrate or ligand; peptides without Tyr show the background
# output: bare number, no unit

The cases that follow already have their phosphorylation enrichment on record.
input: Requested field: phosphorylation enrichment. Item: RRGTGYTLPLP [MAGEC3_Y152_S155P]
output: 0.971

input: Next sequence up: ATPKGYELDAS [OTC_Y223_P225L]
output: 0.966

input: Next sequence up: PGLKGYPGLSG [COL4A2_Y306_R304K]
output: 0.476

input: Next sequence up: SLAARYFNWVS [FLT4_Y1230_YF]
output: 1.15

input: Next sequence up: MSPPGYKLVTG [GJA1_Y286]
output: 0.541

input: Next sequence up: SVIVPYEPPEV [TP53_Y220_V217I]
output: 1.1

---
input: Requested field: phosphorylation enrichment. Item: DNEFAYLKAII [HNF4A_Y288_YF]
output: 1.13

---

Molecular target: SHP2-C SH2;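 also: peptide library displayed on the E. coli surface as eCPX fusions, selected cells deep-sequenced, score is each peptide's frequency after selection divided by its frequency in the input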
Assay: SH2 binding enrichment of the phosphorylated peptide, bacterial display (enrichment ratio); higher = better substrate or ligand; peptides without Tyr show the background
Collected SH2 binding enrichment values appear next to each entry.
# output: bare number, no unit

The cases that follow already have their SH2 binding enrichment on record.
input: Lab note: need SH2 binding enrichment with SHP2-C SH2 for entry DKATEYSQYMR [MAX_Y70_I71S] , please look it up.
output: 0.82

input: Next sequence up: AGLEDYDRLRP [RAC3_Y64_Q61L]
output: 0.888

input: Next sequence up: TDEYEYDELIV [TGM1_Y136]
output: 0.761

---
input: Lab note: need SH2 binding enrichment with SHP2-C SH2 for entry ESLRRYLENGK [HLA-B_Y195_W191S] , please look it up.
output: 0.473

input: Next sequence up: ISNATYKEIGL [FLT1_Y199]
output: 0.587

input: Next sequence up: KVASVYEAPGF [NT5C_Y65]
output: 0.906

---

Biological target: Hck (UniProt P08631)
Sequence (P08631 whole entry, looked up): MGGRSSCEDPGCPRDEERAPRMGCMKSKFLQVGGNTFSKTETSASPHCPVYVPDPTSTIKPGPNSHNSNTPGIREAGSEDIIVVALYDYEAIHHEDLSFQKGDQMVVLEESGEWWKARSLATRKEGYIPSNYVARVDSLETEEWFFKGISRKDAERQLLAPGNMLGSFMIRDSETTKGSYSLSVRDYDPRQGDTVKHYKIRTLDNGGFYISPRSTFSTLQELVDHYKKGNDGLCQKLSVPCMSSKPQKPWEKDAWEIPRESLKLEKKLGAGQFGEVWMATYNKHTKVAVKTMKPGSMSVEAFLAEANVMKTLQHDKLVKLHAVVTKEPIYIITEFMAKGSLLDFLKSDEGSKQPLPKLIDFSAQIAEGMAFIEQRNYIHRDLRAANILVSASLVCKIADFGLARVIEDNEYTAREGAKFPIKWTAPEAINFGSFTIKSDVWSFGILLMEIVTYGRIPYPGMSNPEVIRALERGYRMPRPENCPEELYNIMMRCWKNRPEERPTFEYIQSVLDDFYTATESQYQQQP
Test: phosphorylation enrichment, bacterial display (enrichment ratio); higher = better substrate or ligand; peptides without Tyr show the background
value-type: phosphorylation enrichment
# output: bare number, no unit

The cases that follow already have their phosphorylation enrichment on record.
input: Requested field: phosphorylation enrichment. Item: FRRITYFNWRH [PDE6B_Y556_H557Y_YF]
output: 0.832

input: Next sequence up: LSPNMYNSKLW [TARSL2_Y457]
output: 0.831

input: Next sequence up: QSSALYEDHFL [ASS1_Y83_R86H_YF]
output: 1.57

input: Next sequence up: DSIRDYEDGTE [CLNS1A_Y214_M218T]
output: 0.57

input: Next sequence up: SLAARYFNWVS [FLT4_Y1230_YF]
output: 0.532

---
input: Requested field: phosphorylation enrichment. Item: RAQIRYAQEHD [NSD1_Y1987_R1984Q]
output: 0.667

input: Next sequence up: GGSDRYGSLRP [MYLK_Y846]
output: 0.339

input: Next sequence up: WGTAEYDSVVA [MAP1A_Y1883]
output: 1.16

input: Next sequence up: VSFGEYRFRSV [CFTR_Y515_D513G_YF]
output: 0.469

input: Next sequence up: PGPPGYCDSSQ [COL12A1_Y3043]
output: 0.639

input: Next sequence up: QMVGMYASSFM [AVPR2_Y124_YF]
output: 1.34
